biological target: Carbonic anhydrase 2 (Homo sapiens) (UniProt P00918); test: CAII small-molecule binders, profiling panel, biochemical, small-molecule microarray, Alexa647-labelled CAII (AID 1122); conditions: CAII-A647 binding fluorescence, higher = more signal
MEASUREMENT NAME: composite z-score
Answer with a bare number; do not write a unit.

MOLECULE	composite z-score
CC(C)=NOCc1ccc(-c2cn([C@@H]3COC[C@H]3O)nn2)cc1	-0.132
CO[C@@H]1COC(=O)CC=C[C@H](C)COC(=O)[C@H](C)NC(=O)CC=C[C@H]1C	-0.427
C=C(C)C(=O)OC[C@@H]1CN2[C@@H](CC[C@@H](C)[C@@H]2c2ccc(Br)cc2)C(=O)O1	0.195
C[C@@H]1CC[C@@H](C(=O)O)N[C@H]1c1ccc(-c2ccco2)cc1	0.812

Please report composite z-score for the following molecule: "CCN1C(=O)[C@H]2[C@H]3[C@H](O)[C@H](O)CC(=NNC(=O)OCc4ccc(OC)cc4)[C@H]3CC[C@H]2C1=O"
-0.121

Please report composite z-score for the following molecule: "CC(C)C(=O)N[C@@H]1CCCN1C(=O)C=Cc1ccccc1"
-0.0483

Please report composite z-score for the following molecule: "CO[C@@H]1C=CCC(=O)N2CCC[C@H]2C(=O)OC[C@H](C)C(=O)OC[C@H]1C"
0.403

Please report composite z-score for the following molecule: CCOC(=O)[C@H](Cc1ccccc1)NC(=O)CCC1CC(OC(=O)NCc2cccc3ccccc23)CC2(CCCC(COC(=O)NCCCN3CCCC3=O)O2)O1 (some centres undefined)
0.165

Please report composite z-score for the following molecule: "CO[C@H]1COC(=O)CC=C[C@@H](C)COC(=O)[C@@H](OCc2ccccc2)C=C[C@@H]1C"
-0.297
